target: HCoV-OC43 Mpro (Human coronavirus OC43); experiment: HCoV-OC43 Mpro enzymatic inhibition assay (fluorescence); format: biochemical
Sequence (P0C6X6 3247-3549 limits assumed): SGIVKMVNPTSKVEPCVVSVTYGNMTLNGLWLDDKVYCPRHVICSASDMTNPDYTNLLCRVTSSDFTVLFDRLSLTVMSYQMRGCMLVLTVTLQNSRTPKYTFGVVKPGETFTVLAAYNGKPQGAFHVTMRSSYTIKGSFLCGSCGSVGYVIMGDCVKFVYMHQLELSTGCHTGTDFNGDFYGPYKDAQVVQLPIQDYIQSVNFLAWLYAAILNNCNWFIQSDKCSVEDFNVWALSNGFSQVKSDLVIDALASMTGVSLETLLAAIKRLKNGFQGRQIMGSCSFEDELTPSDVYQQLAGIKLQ
pIC50: −log10 of the molar value.
Rule: class 1 for pIC50 not less than 7, class 0 for anything less.

Query block: Has O=C[C@H](C[C@@H]1CCNC1=O)NC(=O)[C@@H]1CC2(CC2)CN1C(=O)c1cc2cccc(Cl)c2[nH]1 a recorded pIC50 greater than or equal to 7?
Result block: class 1

Query block: One more compound: O=C[C@H](C[C@@H]1CCNC1=O)NC(=O)[C@@H]1C[C@@H]2CCC[C@@H]2N1C(=O)c1cc2ccccc2[nH]1
Result block: class 0

Query block: One more compound: CC(C)c1ccc(F)c2[nH]c(C(=O)N3C[C@H]4[C@@H]([C@H]3C(=O)N[C@H](C#N)C[C@@H]3CCNC3=O)C4(C)C)cc12
Result block: class 0

Query block: One more compound: CC1(C)[C@@H]2[C@@H](C(=O)N[C@H](C=O)C[C@@H]3CCNC3=O)N(C(=O)c3cc4c(F)cc(F)cc4[nH]3)C[C@@H]21
Result block: class 1

Query block: One more compound: CC1CC(C(=O)N2C[C@H]3[C@@H]([C@H]2C(=O)N[C@H](C=O)C[C@@H]2CCNC2=O)C3(C)C)C1 (stereo partly drawn)
Result block: class 0

Query block: One more compound: C[C@@H]1C[C@@H](C(=O)N[C@H](C=O)C[C@@H]2CCNC2=O)N(C(=O)c2cc3ccccc3[nH]2)C1
Result block: class 0

Query block: One more compound: CC1(C)[C@@H]2[C@@H](C(=O)N[C@H](C=O)C[C@@H]3CCNC3=O)N(C(=O)c3cc4cccc(Cl)c4[nH]3)C[C@@H]21
Result block: class 1

Query block: One more compound: O=C1NCC[C@H]1C[C@H](NC(=O)[C@@H]1CC2(CC2)CN1C(=O)c1cc2ccccc2[nH]1)C(=O)c1nc2ccccc2s1
Result block: class 0

Query block: One more compound: O=C[C@H](C[C@@H]1CCNC1=O)NC(=O)[C@@H]1C[C@@H](C2CCCCC2)CN1C(=O)c1cc2cccc(Cl)c2[nH]1
Result block: class 0

* * *

target: HCoV-NL63 Mpro (Human coronavirus NL63, UniProt P0C6X5); assay: HCoV-NL63 Mpro enzymatic inhibition assay (fluorescence); format: biochemical
Sequence (P0C6X5 2940-3242 limits assumed): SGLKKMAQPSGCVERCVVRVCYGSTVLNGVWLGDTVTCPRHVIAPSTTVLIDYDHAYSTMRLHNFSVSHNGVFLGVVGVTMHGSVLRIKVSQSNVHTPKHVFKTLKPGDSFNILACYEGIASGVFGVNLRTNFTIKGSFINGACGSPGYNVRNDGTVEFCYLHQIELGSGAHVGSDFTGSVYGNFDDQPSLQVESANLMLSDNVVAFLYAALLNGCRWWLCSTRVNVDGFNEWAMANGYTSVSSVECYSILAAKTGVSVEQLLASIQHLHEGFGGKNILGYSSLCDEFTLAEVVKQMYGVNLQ
readout: IC50 (nM)
State just the number; it will be interpreted in nM.

Query block: # lookup: IC50 of Cc1cccc2c1cc(C(=O)N1C[C@H]3[C@@H]([C@H]1C(=O)N[C@H](C=O)C[C@@H]1CCNC1=O)C3(C)C)n2C
Result block: 1780

Query block: One more compound: Cc1ccc2cc(C(=O)N3C[C@H]4[C@@H]([C@H]3C(=O)N[C@H](C=O)C[C@@H]3CCNC3=O)C4(C)C)[nH]c2c1C
Result block: 76.1

Query block: One more compound: NC(=O)C(=O)[C@H](C[C@@H]1CCNC1=O)NC(=O)[C@@H]1CC2(CC2)CN1C(=O)c1cc2ccccc2[nH]1
Result block: 48.5

Query block: One more compound: CC1(C)[C@@H]2[C@@H](C(=O)N[C@H](C=O)C[C@@H]3CCNC3=O)N(C(=O)Cc3ccccc3)C[C@@H]21
Result block: 49.7

Query block: One more compound: Cc1cccc2cc(C(=O)N3C[C@H]4[C@@H]([C@H]3C(=O)N[C@H](C=O)C[C@@H]3CCNC3=O)C4(C)C)[nH]c12
Result block: 78

Query block: One more compound: CC1(C)[C@@H]2[C@@H](C(=O)N[C@H](C=O)C[C@@H]3CCNC3=O)N(C(=O)CC3CCCC(F)(F)C3)C[C@@H]21 (stereo partly shown)
Result block: 37.1

Query block: One more compound: CC1(C)[C@@H]2[C@@H](C(=O)N[C@H](C=O)C[C@@H]3CCNC3=O)N(C(=O)c3cc4c(Cl)cc(Cl)cc4[nH]3)C[C@@H]21
Result block: 88.9

Query block: One more compound: O=C[C@H](C[C@@H]1CCNC1=O)NC(=O)[C@@H]1CC2(CCC2)CN1C(=O)c1cc2ccccc2[nH]1
Result block: 45

Query block: One more compound: CC1(C)[C@@H]2[C@@H](C(=O)N[C@H](C=O)C[C@@H]3CCNC3=O)N(C(=O)c3cc4ccc(F)cc4[nH]3)C[C@@H]21
Result block: 37.3

Query block: One more compound: CC(C)(C)CCC(=O)N1C[C@H]2[C@@H]([C@H]1C(=O)N[C@H](C=O)C[C@@H]1CCNC1=O)C2(C)C
Result block: 182

Query block: One more compound: CC1(C)C[C@@H](C(=O)N[C@H](C=O)C[C@@H]2CCNC2=O)N(C(=O)c2cc3cccc(C#N)c3[nH]2)C1
Result block: 40.7

Query block: One more compound: CC1(C)[C@@H]2[C@@H](C(=O)N[C@H](C=O)C[C@@H]3CCNC3=O)N(C(=O)c3cc4cc(Cl)ccc4[nH]3)C[C@@H]21
Result block: 69.5

Query block: One more compound: N#Cc1cccc2[nH]c(C(=O)N3CC4(CC4)C[C@H]3C(=O)N[C@H](C=O)C[C@@H]3CCNC3=O)cc12
Result block: 33
